Molecular target: T1, sIL-6R (soluble IL-6 receptor; SBH Sciences) (human, UniProt P08887 20-365)
T1 construct: also called human IL-6R
T1 sequence: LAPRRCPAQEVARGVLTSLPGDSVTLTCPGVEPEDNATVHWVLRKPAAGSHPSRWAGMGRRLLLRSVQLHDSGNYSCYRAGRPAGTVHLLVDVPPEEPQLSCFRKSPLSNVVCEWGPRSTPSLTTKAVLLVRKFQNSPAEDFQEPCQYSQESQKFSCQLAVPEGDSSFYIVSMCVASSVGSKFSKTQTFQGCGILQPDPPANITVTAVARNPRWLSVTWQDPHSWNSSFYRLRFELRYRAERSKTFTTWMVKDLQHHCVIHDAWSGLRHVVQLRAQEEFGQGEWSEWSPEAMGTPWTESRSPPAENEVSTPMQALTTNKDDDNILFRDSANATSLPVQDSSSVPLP
Experiment: SPR (BIAcore 3000), antibody on chip, sIL-6R analyte, 25 C
Test readout: pKd
Recall that pKd is obtained by taking minus log10 of the concentration measured in molar.

Examples with their reported pKd follow.
[
  {
    "Binder": "24# (antibody, human IgG1, kappa, V domains shown, also called Sample # 24) VH: QVQLQESGPGLVRPSQTLSLTCTVSGYSITSDHAWSWVRQPPGRGLEWIGYISYSGITTYNPSLKSRVTMLRDTSKNQFSLRLSSVTAADTAVYYCARCLARITAMDYWGQGSLVTVSS VL: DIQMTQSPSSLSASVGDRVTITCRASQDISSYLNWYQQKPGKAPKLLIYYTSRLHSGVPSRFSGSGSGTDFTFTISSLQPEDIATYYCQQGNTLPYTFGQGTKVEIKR",
    "pKd": 9.55
  },
  {
    "Binder": "14# (antibody, human IgG1, kappa, V domains shown, also called Sample # 14) VH: QVQLQESGPGLVRPSQTLSLTCTVSGYSITSDHAWSWVRQPPGRGLEWIGFISYSGITTYNPSLKSRVTMLRDTSKNQFSLRLSSVTAADTAVYYCARSLARITAMDYWGQGSLVTVSS VL: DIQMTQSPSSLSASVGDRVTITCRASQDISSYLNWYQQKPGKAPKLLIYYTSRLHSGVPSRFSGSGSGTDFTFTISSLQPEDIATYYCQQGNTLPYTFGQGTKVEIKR",
    "pKd": 9.74
  },
  {
    "Binder": "9# (antibody, human IgG1, kappa, V domains shown, also called Sample # 9) VH: QVQLQESGPGLVRPSQTLSLTCTVSGYSITSDHAWSWVRQPPGRGLEWIGYISYSGIITYNASLKSRVTMLRDTSKNQFSLRLSSVTAADTAVYYCARCLARTTAMDYWGQGSLVTVSS VL: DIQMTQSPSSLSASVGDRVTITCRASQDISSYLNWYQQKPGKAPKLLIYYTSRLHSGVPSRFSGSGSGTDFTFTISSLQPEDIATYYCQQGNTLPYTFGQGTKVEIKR",
    "pKd": 9.60
  },
  {
    "Binder": "28# (antibody, human IgG1, kappa, V domains shown, also called Sample # 28) VH: QVQLQESGPGLVRPSQTLSLTCTVSGYSITSDHAWSWVRQPPGRGLEWIGFISYSGMTTYNPSLKSRVTMLRDTSKNQFSLRLSSVTAADTAVYYCARSLARTTAMDYWGQGSLVTVSS VL: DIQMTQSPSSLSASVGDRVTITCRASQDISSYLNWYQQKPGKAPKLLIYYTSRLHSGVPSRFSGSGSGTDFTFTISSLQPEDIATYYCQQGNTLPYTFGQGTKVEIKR",
    "pKd": 9.57
  },
  {
    "Binder": "30# (antibody, human IgG1, kappa, V domains shown, also called Sample # 30) VH: QVQLQESGPGLVRPSQTLSLTCTVSGYSITSDHAWSWVRQPPGRGLEWIGFISYSGMTTYNPSLKSRVTMLRDTSKNQFSLRLSSVTAADTAVYYCARCLARTTAMDYWGQGSLVTVSS VL: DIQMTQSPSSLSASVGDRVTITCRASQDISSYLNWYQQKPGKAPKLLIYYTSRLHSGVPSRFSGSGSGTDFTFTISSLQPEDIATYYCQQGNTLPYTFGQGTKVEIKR",
    "pKd": 9.63
  }
]

Give the value of pKd reported for the following: 13# (antibody, human IgG1, kappa, V domains shown, also called Sample # 13) VH: QVQLQESGPGLVRPSQTLSLTCTVSGYSITSDHAWSWVRQPPGRGLEWIGFISYSGITTYNPSLKSRVTMLRDTSKNQFSLRLSSVTAADTAVYYCARCLARTTAMDYWGQGSLVTVSS VL: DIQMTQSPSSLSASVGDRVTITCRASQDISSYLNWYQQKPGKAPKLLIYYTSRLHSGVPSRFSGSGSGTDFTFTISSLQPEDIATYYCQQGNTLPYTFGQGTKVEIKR
9.43

For the binder 18# (antibody, human IgG1, kappa, V domains shown, also called Sample # 18) VH: QVQLQESGPGLVRPSQTLSLTCTVSGYSITSDHAWSWVRQPPGRGLEWIGFISYSGITTYNPSLKSRVTMLRDTSKNQFSLRLSSVTAADTAVYYCARCLARITAMDYWGQGSLVTVSS VL: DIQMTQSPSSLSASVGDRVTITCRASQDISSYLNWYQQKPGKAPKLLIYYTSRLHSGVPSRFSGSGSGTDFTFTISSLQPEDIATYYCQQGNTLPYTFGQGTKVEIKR , report pKd.
9.85

Quickly give me recorded pKd for 12# (antibody, human IgG1, kappa, V domains shown, also called Sample # 12) VH: QVQLQESGPGLVRPSQTLSLTCTVSGYSITSDHAWSWVRQPPGRGLEWIGFISYSGITTYNPSLKSRVTMLRDTSKNQFSLRLSSVTAADTAVYYCARCLARATAMDYWGQGSLVTVSS VL: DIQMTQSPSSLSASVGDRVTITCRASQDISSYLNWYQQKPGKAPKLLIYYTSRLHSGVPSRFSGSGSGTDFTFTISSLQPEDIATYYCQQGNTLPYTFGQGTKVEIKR
9.54

Give me measured pKd, please, for this binder: 26# (antibody, human IgG1, kappa, V domains shown, also called Sample # 26) VH: QVQLQESGPGLVRPSQTLSLTCTVSGYSITSDHAWSWVRQPPGRGLEWIGYISYSGMTTYNPSLKSRVTMLRDTSKNQFSLRLSSVTAADTAVYYCARSLARTTAMDYWGQGSLVTVSS VL: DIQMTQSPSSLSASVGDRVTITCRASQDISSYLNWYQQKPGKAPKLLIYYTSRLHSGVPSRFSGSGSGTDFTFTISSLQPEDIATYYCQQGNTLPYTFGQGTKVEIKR
9.38

Query pKd for 16# (antibody, human IgG1, kappa, V domains shown, also called Sample # 16) VH: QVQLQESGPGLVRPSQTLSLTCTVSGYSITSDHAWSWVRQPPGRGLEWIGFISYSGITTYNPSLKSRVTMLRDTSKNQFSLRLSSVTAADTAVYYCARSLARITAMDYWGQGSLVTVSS VL: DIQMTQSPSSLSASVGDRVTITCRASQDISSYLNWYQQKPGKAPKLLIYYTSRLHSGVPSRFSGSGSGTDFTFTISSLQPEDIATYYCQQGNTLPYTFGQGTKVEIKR
9.87
